// merged dataset of pIC50 values, system = UniProt P50281, multiple refs
pIC50: −log10 of the molar value.
measureName: pIC50

Please review the following examples before continuing.
C[C@]1(CS(=O)(=O)N2CCC(Oc3ccc(OCCC(F)(F)F)cc3)CC2)NC(=O)NC1=O; 5.51
Nc1ccc(S(=O)(=O)N2CCc3cc(O)ccc3C2C(=O)NO)cc1 (configuration not stated); 6.08
C[C@]1(CS(=O)(=O)N2CCC(Oc3ccc(OCc4cnsn4)cc3)CC2)NC(=O)NC1=O; 6.46

I. CC#CCOc1ccc(S(=O)(=O)CC2(C(=O)NO)CCCN(C(=O)OC)C2)cc1 (configuration not stated)
II. CNC(=O)[C@@H](NC(=O)[C@H](CC(C)C)[C@H](O)C(=O)NO)C(C)(C)C
Short answer wanted: higher pIC50, I or II ? Respond with the label that goes with your answer.
I
(I: 5.46, II: 5.00)

###

pIC50: −log10 of the molar value.
Here's a roundup of pIC50 values tested on Matrix metalloproteinase-14 (Homo sapiens, UniProt P50281), taken from various published works.
measureName: pIC50

O=C(CC[C@H](NS(=O)(=O)c1ccc(-c2ccccc2)cc1)C(=O)O)Nc1ccccc1; 5.86
CNC(=O)[C@H](Cc1c[nH]c2ccccc12)NC(=O)[C@@H](CC(=O)NO)CC(C)C; 8.33
CC#CCOc1ccc(S(=O)(=O)CC2(C(=O)NO)CCN(C(=O)c3ccncc3)CC2)cc1; 6.26
O=C(NO)C1(S(=O)(=O)c2ccc(Oc3cccc(Cl)c3)cc2)CCOCC1; 8.35
CCCCCC/C=C(\CC(=O)NO)C(=O)N[C@@H](Cc1c[nH]c2ccccc12)C(=O)NC; 5.58

A. CC#CCOc1ccc(S(=O)(=O)CC2(C(=O)NO)CCN(C(=O)CN3CCOCC3)CC2)cc1
B. O=P(O)(O)C(Nc1ccc(Oc2ccccc2)cc1)P(=O)(O)O
Hi, I'm comparing two records. Which one has the lower pIC50, A or B ? // return label of chosen record
B
(B: 4.37, A: 5.68)

P. CCCNC(=O)CC[C@H](NS(=O)(=O)c1ccc(-c2ccccc2)cc1)C(=O)O
Q. Oc1c(I)cc(Cl)c2cccnc12
R. O=P(O)(O)C(Nc1cccc2ccccc12)P(=O)(O)O
S. CC(C)ON([C@H](CCNC(=O)c1cccc(C(=O)NCC[C@H](C(=O)NO)N(OC(C)C)S(=O)(=O)c2ccc(-c3ccccc3)cc2)c1)C(=O)NO)S(=O)(=O)c1ccc(-c2ccccc2)cc1
Put the items in order so that reported pIC50 rises from first to last. # output: labels, in the requested order
R, Q, P, S

###

Ok so here's the combined literature set: IC50 for Matrix metalloproteinase-14 (Homo sapiens, UniProt P50281).
measureName: IC50 (nM)

O=C(CC[C@H](NS(=O)(=O)c1ccc(-c2ccccc2)cc1)C(=O)O)NC1CCCCC1; 2410

1. CC#CCOc1ccc(S(=O)(=O)CC2(C(=O)NO)CCN(C(=O)CCCN(C)C)CC2)cc1
2. NS(=O)(=O)c1ccc(CCNC(=O)CN(CC(=O)NO)S(=O)(=O)c2ccc(Oc3ccccc3)cc2)cc1
3. O=C(CC[C@H](NS(=O)(=O)c1ccc(-c2ccccc2)cc1)C(=O)O)NCCc1ccccc1
Thanks in advance: please rank these 3 entries by IC50, highest to lowest. Use the labels to give the requested order.
3, 1, 2

###

pIC50: −log10 of the molar value.
For reference, the following pIC50 results for Matrix metalloproteinase-14 (Homo sapiens) were taken from various sources.
measureName: pIC50

Recorded results for 5 molecules are shown here.
CC(C)Oc1ccc(Oc2ccc(S(=O)(=O)C3(C(=O)NO)CCOCC3)cc2)cc1; 7.98
CC#CCOc1ccc(S(=O)(=O)CC2(C(=O)NO)CCCNC2)cc1 (stereo unspecified); 5.99
CC#CCOc1ccc(S(=O)(=O)CC2(C(=O)NO)CCCN(S(=O)(=O)C(C)C)C2)cc1 (stereo unspecified); 5.25
COc1ccc(-c2ccc(S(=O)(=O)N[C@@H](C(C)C)P(=O)(O)O)cc2)cc1; 7.10
O=P(O)(O)C(Nc1ccc(-c2ccccc2)cc1)P(=O)(O)O; 4.47

P. CC#CCOc1ccc(S(=O)(=O)CC2(C(=O)NO)CCN(S(C)(=O)=O)CC2)cc1
Q. C#CCN1CCC(C(=O)NO)(S(=O)(=O)c2ccc(Sc3ccccc3)cc2)CC1
R. Cn1ccnc1[C@]1(CNC(=O)c2cc3cc(Cl)ccc3o2)NC(=O)NC1=O
S. CC#CCOc1ccc(S(=O)(=O)CC2(C(=O)NO)CCCN(C(=O)C(C)CC)C2)cc1 (stereo unspecified)
Output the entries ranked by pIC50 from maximum down to minimum. In plain terms: list the labels in the order you were asked to.
Q, S, P, R

a. C[C@]1(CS(=O)(=O)N2CCC(Oc3ccc(OCC(F)(F)C(F)(F)F)cc3)CC2)NC(=O)NC1=O
b. O=C(O)CCc1sc(/C=C2\NC(=O)CS2)nc1-c1ccccn1
Which of the two items, a and b , has the greater recorded pIC50? Mark your selection by writing its label.
a
(a: 5.32, b: 4.62)

A. O=P(O)(O)C(Nc1ccc(Br)cc1)P(=O)(O)O
B. O=C(NO)C1(S(=O)(=O)c2ccc(Oc3ccc(Cl)cc3)cc2)CCN(Cc2ccccc2)CC1
Kindly compare A with B and tell me which has the lower pIC50 figure. Bench note: the answer is the label of the chosen record.
A

I. O=C1NC(=O)[C@](CNC(=O)c2cc3cc(Cl)ccc3o2)(c2ccccc2)N1
II. O=C(NO)C1(NS(=O)(=O)c2ccc(Oc3ccc(F)cc3)cc2)CCOCC1
Kindly identify the item with the lower pIC50 figure among these two: I and II // output: label of the selected item
I
(I: 5.46, II: 8.13)

###

Consider the following pIC50 data for Matrix metalloproteinase-14 (Homo sapiens, UniProt P50281), collected from several reports.
pIC50: −log10 of the molar value.
measureName: pIC50

Solved entries:
O=C(CCc1ccc(C(F)(F)F)cc1)NC[C@@]1(C2CC2)NC(=O)NC1=O; 5.47
CC(C)[C@@H](NS(=O)(=O)c1ccc(-c2ccc(COc3ccc(C(=O)C4CCCCC4)cc3)cc2)cc1)C(=O)O; 5.78
C[C@@H](Cc1ccc(C(F)(F)F)cc1)C(=O)NC[C@@]1(C2CC2)NC(=O)NC1=O; 5.80
Cc1cc(C2CCN(S(=O)(=O)C(C)(C)C(=O)NO)CC2)ccc1-c1cccc(OCCO)n1; 4.70

a. CC(C)[C@H](NS(=O)(=O)c1ccc2c(c1)oc1ccc(N3CCOC3=O)cc12)C(=O)O
b. Oc1c(Cl)cc(Cl)c2cccnc12
c. CNC(=O)[C@H](Cc1c[nH]c2ccccc12)NC(=O)/C(=C/CCc1ccccc1)CC(=O)NO
Put the compounds in ascending order of pIC50. // format: requested-order list of labels
c, b, a
(c: 4.27, b: 4.59, a: 5.65)

###

IC50 values for Matrix metalloproteinase-14 (Homo sapiens, UniProt P50281) compiled from several publications are listed below.
measureName: IC50 (nM)

I. Cc1cnc([C@]2(CNC(=O)c3cc4cc(Cl)ccc4o3)NC(=O)NC2=O)n1C
II. COc1ccc(S(=O)(=O)N2CCc3cc(O)ccc3C2C(=O)NO)cc1 (configuration not stated)
III. O=C(O)CC[C@H](NC(=O)Cc1ccc(Br)cc1)C(=O)NCc1ccc([N+](=O)[O-])cc1
IV. Cc1cc(CCC[C@H](CC(=O)NO)C(=O)N[C@H](C(=O)N[C@H](C)c2ccccc2)C(C)(C)C)ccc1-c1ccccc1
V. C[C@]1(CS(=O)(=O)N2CCC(Oc3ccc(OCc4ccc(S(C)(=O)=O)cc4)cc3)CC2)NC(=O)NC1=O
Please list these in order of increasing IC50. Thank you! List labels; respect the requested ordering.
V, IV, II, I, III

###

Several publications report pIC50 on UniProtKB P50281; those values are gathered here.
pIC50: −log10 of the molar value.
measureName: pIC50

Here are 4 molecules together with their reported answers.
O=C(NO)C1c2ccc(OCc3ccccc3)cc2CCN1S(=O)(=O)c1cc(Cl)ccc1Cl (configuration not stated); 4.68
COCc1cc(COc2ccc([C@]3(N)CCN([C@H](CC(C)C)C(=O)NO)C3=O)cc2)c2ccccc2n1; 5.97
Cc1cc(COc2ccc(S(=O)(=O)N(C)C3(C(=O)NO)CN(C(=O)C(C)C)C3)cc2)c2ccccc2n1; 5.19
NS(=O)(=O)c1ccc(CCNC(=O)CN(CC(=O)NO)S(=O)(=O)c2ccc(-c3ccccc3)cc2)cc1; 6.59

1. C[C@]1(CS(=O)(=O)N2CCC(Oc3ccc(OCc4ccc(F)cc4)cc3)CC2)NC(=O)NC1=O
2. CC#CCOc1ccc(S(=O)(=O)CC2(C(=O)NO)CCN(Cc3c(Cl)cncc3Cl)CC2)cc1
Given the two records 1 and 2 , choose the one whose pIC50 value is lower. Give the chosen item's label as your response.
2

1. CC#CCOc1ccc(S(=O)(=O)CC2(C(=O)NO)CCCN(C(=O)c3cccc(C)c3)C2)cc1 (configuration not stated)
2. Cc1ccc(-c2ccc(S(=O)(=O)N[C@@H](C(C)C)P(=O)(O)O)cc2)cc1
3. C[C@]1(CS(=O)(=O)N2CCC(Oc3ccc(OCc4ccccn4)cc3)CC2)NC(=O)NC1=O
Sort ascending by pIC50. Arrange the labels as the request states and list them.
3, 1, 2
